// pIC50 collected for Dipeptidyl peptidase 4 (Homo sapiens)
pIC50: −log10 of the molar value.

**Query** Recorded pIC50 for CC(C)CNCC(C)(C)NCC(=O)N1C[C@@H](F)C[C@H]1C#N , please?
**Result** < 6.50

**Query** Recorded pIC50 for C#CC(CC)(CC)NCC(=O)N1C[C@@H](F)C[C@H]1C#N , please?
**Result** < 6.50

---

Procedure details: Drug level in Wistar rat plasma at 1 mg/kg, po after 2 hrs
Type: ADME, organism-based
Set-up: dose 1 mg/kg, route oral
Condition parameters: read-out: Drug uptake
concentration at 2 h for assorted molecules
// note: answer is a bare numeric in ng/mL

Line notation	Recorded endpoint	Quantitative result
CC[C@H](C)[C@@H](N)C(=O)N1C[C@@H](F)C[C@H]1C#N	concentration at 2 h	5

**Query** Recorded concentration at 2 h for CC(C)(CO)NCC(=O)N1C[C@@H](F)C[C@H]1C#N , please?
**Result** 168

**Query** Recorded concentration at 2 h for N#Cc1ccc(NCCNCC(=O)N2C[C@@H](F)C[C@H]2C#N)nc1.O=C(O)/C=C\C(=O)O , please?
**Result** 8
